biological target: Metabotropic glutamate receptor 5 (Homo sapiens, UniProt P41594); test: Negative allosteric modulatory activity at human cloned mGluR5 receptor expressed in CHO-T-Rex cells assessed as inhibiton of quisqualate-induced calcium mobilization treated 10 mins prior to agonist application by fluorescence analysis; assay type: functional, cell-based
Sequence (P41594 whole entry): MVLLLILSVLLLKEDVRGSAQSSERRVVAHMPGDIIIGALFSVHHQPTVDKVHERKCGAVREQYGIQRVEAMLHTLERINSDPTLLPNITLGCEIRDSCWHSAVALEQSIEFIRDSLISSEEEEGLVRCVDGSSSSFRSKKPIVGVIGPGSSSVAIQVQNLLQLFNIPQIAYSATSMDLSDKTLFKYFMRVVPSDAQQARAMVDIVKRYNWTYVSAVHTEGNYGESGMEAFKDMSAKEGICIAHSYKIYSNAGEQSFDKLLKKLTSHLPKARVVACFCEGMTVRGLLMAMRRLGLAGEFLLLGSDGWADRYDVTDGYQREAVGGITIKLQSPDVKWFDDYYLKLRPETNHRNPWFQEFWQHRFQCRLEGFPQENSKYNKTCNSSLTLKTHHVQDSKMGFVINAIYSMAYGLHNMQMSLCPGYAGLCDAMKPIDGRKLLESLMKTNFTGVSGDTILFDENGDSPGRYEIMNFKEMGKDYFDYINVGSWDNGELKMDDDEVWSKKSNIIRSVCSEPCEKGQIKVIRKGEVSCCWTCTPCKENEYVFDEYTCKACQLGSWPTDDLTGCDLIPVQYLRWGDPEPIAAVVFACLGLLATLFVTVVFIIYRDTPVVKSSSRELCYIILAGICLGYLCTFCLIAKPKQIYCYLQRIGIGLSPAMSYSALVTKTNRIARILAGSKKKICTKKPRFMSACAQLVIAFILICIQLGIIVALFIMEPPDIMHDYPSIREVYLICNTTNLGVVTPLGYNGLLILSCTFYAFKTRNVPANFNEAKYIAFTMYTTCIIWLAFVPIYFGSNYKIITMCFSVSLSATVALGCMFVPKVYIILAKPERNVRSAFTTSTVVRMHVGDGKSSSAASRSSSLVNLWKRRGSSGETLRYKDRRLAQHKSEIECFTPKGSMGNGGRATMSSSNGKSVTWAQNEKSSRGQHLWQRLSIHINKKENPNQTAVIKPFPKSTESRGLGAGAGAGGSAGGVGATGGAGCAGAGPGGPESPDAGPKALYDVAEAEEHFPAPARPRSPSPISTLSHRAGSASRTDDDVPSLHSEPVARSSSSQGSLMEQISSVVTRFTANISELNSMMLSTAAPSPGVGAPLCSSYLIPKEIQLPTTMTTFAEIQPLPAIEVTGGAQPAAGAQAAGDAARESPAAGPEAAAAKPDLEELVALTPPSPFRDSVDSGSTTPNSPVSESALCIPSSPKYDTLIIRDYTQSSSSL
Returns: string. Value is Satisfied if measured IC50 is below 2 nM, and Not satisfied if it is greater than or equal to it.

Input line: Please indicate whether the reported IC50 of Cc1cccc(C#CC=C2CCN(c3ncccc3[N+](=O)[O-])CC2)n1 is strictly below 2 nM.
Output line: Satisfied

* * *

biological target: UniProt P23385; assay: Negative allosteric modulatory activity at rat cloned mGluR1 receptor expressed in CHO-T-Rex cells assessed as inhibiton of quisqualate-induced calcium mobilization treated 10 mins prior to agonist application by fluorescence analysis
Sequence (P23385 whole entry): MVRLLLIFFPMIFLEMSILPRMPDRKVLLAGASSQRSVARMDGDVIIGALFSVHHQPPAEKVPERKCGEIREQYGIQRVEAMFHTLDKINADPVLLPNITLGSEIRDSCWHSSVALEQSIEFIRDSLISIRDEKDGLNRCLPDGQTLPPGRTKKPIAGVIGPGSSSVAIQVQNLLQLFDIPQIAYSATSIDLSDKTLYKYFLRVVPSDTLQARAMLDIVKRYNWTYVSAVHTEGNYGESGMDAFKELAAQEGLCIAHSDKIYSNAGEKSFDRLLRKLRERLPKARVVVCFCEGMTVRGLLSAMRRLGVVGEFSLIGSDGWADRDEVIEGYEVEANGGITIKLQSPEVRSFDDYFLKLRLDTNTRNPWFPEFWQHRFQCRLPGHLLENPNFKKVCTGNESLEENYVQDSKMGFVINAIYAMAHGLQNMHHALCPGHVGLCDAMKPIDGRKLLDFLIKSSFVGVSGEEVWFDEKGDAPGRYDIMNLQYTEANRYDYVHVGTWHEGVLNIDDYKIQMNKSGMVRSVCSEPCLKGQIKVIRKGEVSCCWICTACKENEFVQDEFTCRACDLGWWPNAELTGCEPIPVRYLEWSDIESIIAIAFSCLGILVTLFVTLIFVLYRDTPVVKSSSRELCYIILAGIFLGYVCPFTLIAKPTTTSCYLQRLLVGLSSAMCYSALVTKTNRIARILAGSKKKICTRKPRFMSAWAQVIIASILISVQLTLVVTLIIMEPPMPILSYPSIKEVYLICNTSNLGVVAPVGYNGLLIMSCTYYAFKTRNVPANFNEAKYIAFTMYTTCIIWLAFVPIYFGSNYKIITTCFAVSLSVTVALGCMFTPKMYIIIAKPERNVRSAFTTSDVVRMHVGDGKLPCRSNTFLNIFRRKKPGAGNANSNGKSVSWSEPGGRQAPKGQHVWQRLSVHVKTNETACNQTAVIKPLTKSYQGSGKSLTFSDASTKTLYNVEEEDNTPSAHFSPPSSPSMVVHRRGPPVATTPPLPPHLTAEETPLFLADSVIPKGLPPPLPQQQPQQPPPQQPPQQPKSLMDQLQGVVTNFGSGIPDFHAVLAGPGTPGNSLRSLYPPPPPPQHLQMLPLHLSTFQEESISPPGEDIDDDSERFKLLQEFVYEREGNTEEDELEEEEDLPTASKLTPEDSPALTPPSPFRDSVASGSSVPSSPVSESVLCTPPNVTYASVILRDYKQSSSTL
Readings of pIC50 for the listed compounds
The read-out pIC50 is expressed as -log10 of concentration in moles per litre.

Input line: Report value: pIC50, system: UniProt P23385, compound: O=[N+]([O-])c1cccnc1N1CCC(=CC#Cc2cccc(Cl)c2)CC1
Output line: 5.87
